Target: Glucagon-like peptide 1 receptor (Homo sapiens) (UniProt P43220)
Sequence (P43220 whole entry, looked up): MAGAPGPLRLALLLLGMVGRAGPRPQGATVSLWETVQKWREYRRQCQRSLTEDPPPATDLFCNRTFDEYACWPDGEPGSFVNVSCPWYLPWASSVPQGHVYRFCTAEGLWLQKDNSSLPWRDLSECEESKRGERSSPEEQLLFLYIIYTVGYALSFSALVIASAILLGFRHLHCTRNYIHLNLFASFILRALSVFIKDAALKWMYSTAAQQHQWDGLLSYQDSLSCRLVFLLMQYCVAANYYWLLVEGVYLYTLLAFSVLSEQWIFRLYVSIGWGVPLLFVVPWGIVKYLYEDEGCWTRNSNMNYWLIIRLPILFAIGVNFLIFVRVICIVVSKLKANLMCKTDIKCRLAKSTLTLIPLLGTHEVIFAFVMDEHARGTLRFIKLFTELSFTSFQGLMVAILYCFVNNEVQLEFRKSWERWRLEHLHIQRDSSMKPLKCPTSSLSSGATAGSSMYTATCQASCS
Experiment: qHTS of GLP-1 Receptor Inverse Agonists (Inhibition Mode); also: nearly all actives have a fitted effect of over 55% in size
Conditions: HEK293 GLP-1R CRE-luciferase, luminescence, 24 h, GLP-1R form is constitutively active; series mostly up to 38.3 µM
Among all 410,000 compounds or so, about 6,400 (1.6%) were called active. Inconclusive results (about 20%) are left out. Calls follow the shape of the dose curve; as a rule, active = well fitted inhibition curve with a large enough effect; inconclusive = small, poorly fitted or top-dose-only effect; inactive = no such curve, though single readings can be large or run the other way. The entries come from a sample that favours actives as a whole.
Could you please pick one outcome from this set? true (active), false (inactive)

Known results for molecules:
{"columns": ["molecule", "qualitative_label"],
 "data": [
  ["Cc1[nH]c2ccccc2c1C(=O)CSCC(=O)O", "false"],
  ["CCCN(CC(=O)Nc1ccccc1C)C(=O)c1ccc2[nH]c3c(c2c1)CC(C)CC3 (stereo not given)", "true"],
  ["CCC1OC(C2CC2)CC2=C1C(=O)OC(C)(C)O2 (stereo not given)", "false"],
  ["CCCN(CC(=O)Nc1ccccc1C)C(=O)c1cc(=O)[nH]c2ccccc12", "false"],
  ["CCCCN1CC(N2CCN(Cc3cccc(C)c3)CC2)CS1(=O)=O (stereo not given)", "false"]
]}

With those in mind, consider the next molecule.
Lookup: Assay result, entry `CCCN(CC(=O)Nc1ccccc1C)C(=O)c1ccc(OCC(=O)N2CCOCC2)c(OCC)c1` — outcome?
Found: false

All values here come from PubChem BioAssay AID624417.
